- tgt: T1, human CD200R1 expressed on cells (Jurkat-CD200R1, U937-CD200R1, HH cells) (human, UniProt Q8TD46 25-348)
- T1 construct: whole, on cells; also called HH (CRL-2105); cell surface-expressed CD200R1
- T1 sequence (looked up): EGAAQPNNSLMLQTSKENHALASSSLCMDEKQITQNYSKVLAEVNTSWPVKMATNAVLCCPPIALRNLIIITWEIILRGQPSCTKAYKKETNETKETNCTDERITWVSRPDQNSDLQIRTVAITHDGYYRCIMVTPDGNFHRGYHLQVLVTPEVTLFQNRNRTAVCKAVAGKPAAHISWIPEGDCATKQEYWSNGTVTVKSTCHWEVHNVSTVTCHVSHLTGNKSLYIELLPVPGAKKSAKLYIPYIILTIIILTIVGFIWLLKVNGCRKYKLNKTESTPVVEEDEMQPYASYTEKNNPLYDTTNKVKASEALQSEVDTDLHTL
- measurement-notes: flow cytometry, HH cells; drawn table
// -1 strictly below 2% in Geo mean (%) at 0.05 nM; 1 otherwise

Test whether the binder P001018 scFv mutant L3-L94H (scFv) scFv: QVQLVQSGAEVKKPGASVKVSCKASGYTFTSYVMHWVRQAPGQGLEWMGYINPYNDDTNYNEKFKGRVTMTRDTSTSTVYMELSSLRSEDTAVYYCAREDYYGSRWGYWGQGTLVTVSSGGGGSGGGGSGGGGSDIVLTQSPASLAVSPGQRATITCRASKSVSTSGYSYMHWYQQKPGQPPKLLIYLASNLESGVPARFSGSGSGTDFTLTINPVEANDTANYYCQHSREHLTFGQGTKVEIK records Geo mean (%) at 0.05 nM of 2% or higher.
1
